B1: TMEM106C (parent)
chain: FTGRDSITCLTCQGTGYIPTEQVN

# Variants of: B1
# assay method text: protein stability index of a GFP-peptide fusion (GPS, HEK-293T) (PSI 1-6); higher = more stable;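 also: lentivirally expressed fusions sorted by FACS into six bins by GFP to DsRed ratio, PSI derived from sequencing read proportions per bin multiplied by bin number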
# applied conditions: c terminus: a fixed tail appended
Please respond with reported protein stability index for every item in the list.
Give bare numbers.

Answered cases to consult:
{"columns": ["mutation notation", "protein stability index"],
 "data": [
  ["S6T", 2.43],
  ["S6N", 2.58]
]}

Give protein stability index for each listed item.
1. P19V
2. Y17E
3. G3N
4. I18E

Result:
1. 2.67
2. 2.2
3. 2.12
4. 1.53

Give protein stability index for each listed item.
1. Y17F
2. T2E
3. R4V
4. P19N
5. D5S

Result:
[1.64, 4.48, 1.7, 1.96, 2.29]

Give protein stability index for each listed item.
1. G3V
2. I18S
3. E21F
4. Q13E
5. S6F
6. T8K
7. R4P
8. I18V

Result:
2.99
2.09
1.22
1.95
2.38
1.79
2.41
1.64
